tgt: human alpha 7-wt nAChR (Homo sapiens)
Construct: expressed in transfected cells
Sequence (P36544 23-502): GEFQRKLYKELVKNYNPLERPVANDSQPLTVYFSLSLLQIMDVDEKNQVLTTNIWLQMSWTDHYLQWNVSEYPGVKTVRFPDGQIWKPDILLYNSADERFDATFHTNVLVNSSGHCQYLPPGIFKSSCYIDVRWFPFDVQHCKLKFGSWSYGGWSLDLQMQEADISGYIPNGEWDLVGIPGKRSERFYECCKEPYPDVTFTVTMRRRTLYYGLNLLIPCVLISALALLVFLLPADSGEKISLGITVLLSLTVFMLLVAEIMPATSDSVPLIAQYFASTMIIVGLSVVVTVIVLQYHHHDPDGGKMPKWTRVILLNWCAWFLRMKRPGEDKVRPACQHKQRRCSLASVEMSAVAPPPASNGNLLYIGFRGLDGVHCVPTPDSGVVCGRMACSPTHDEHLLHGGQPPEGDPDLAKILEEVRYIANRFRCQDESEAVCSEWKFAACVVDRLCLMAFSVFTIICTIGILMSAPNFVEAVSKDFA
assay_summary: Ca2+ flux imaging (FDSS) (Protocol B)
Format: cell-based
measurement_parameters: potentiation of 100 μM choline; compounds 0.01 μM to 30 μM; read-out: a7-PAM-G_[33]_pEC50 pEC50 (converted)
experimental_readout: EC50 (nM)

Completed entries (count: 5):
Cc1cc(-c2sc(N3C[C@@H](C)O[C@@H](C)C3)nc2CNC(=O)c2cccc(Cl)c2Cl)cc(C)n1 [Compound 26]    141
Cc1cc(-c2sc(N3C[C@@H](C)O[C@@H](C)C3)nc2CNC(=O)c2nc(C)oc2C)cc(C)n1 [Compound 134]    2400
Cc1cc(-c2sc(N3C[C@@H](C)O[C@@H](C)C3)nc2CNC(=O)c2cccc(Cl)c2)cc(C)n1 [Compound 9]    240
Cc1cc(-c2sc(N3CCOC(C)C3)nc2CNC(=O)c2conc2C)cc(C)n1 (single isomer, unassigned) [Compound 73]    724
Cc1cc(-c2sc(N3C[C@@H](C)O[C@@H](C)C3)nc2CNC(=O)c2cc(C)on2)cc(C2CC2)n1 [Compound 105]    288

A. Cc1cc(-c2sc(N3C[C@@H](C)O[C@@H](C)C3)nc2CNC(=O)CC(C)C)cc(C)n1 [Compound 42]
B. Cc1cc(-c2sc(N3C[C@@H](C)O[C@@H](C)C3)nc2CNC(=O)c2ccc(S(N)(=O)=O)cc2)cc(C)n1 [Compound 144]
When A and B are compared, which has the higher number for EC50? # reply format: chosen label
B
(B: 2140 nM, A: 10.5 nM)
